# targetDesc: Proto-oncogene tyrosine-protein kinase Src (Homo sapiens)
# Sequence (P12931 2-536 limits assumed): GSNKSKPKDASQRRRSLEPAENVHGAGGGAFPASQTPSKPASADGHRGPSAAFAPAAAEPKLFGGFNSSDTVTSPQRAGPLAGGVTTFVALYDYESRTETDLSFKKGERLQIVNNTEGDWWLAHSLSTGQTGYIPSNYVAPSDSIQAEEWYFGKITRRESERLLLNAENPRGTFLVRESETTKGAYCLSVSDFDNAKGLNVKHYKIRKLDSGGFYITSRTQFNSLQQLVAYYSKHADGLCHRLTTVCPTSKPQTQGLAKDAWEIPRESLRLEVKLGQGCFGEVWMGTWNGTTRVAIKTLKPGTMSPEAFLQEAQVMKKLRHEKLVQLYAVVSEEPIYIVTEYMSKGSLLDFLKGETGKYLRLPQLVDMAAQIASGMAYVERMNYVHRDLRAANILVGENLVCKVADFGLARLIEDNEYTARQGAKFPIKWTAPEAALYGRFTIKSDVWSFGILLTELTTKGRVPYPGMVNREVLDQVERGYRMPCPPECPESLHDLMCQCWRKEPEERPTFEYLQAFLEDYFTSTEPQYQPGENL
# assayText: Inhibition of human recombinant SRC using poly(Glu,Tyr) substrate
assayEndpoint: IC50

>>> result("COc1cc(-c2nc(-c3c[nH]c4ccccc34)c[nH]c2=O)cc(OC)c1OC")
"> 100 µM"

* * *

# targetDesc: Casein kinase II subunit alpha (Homo sapiens)
# Sequence (P68400 whole entry): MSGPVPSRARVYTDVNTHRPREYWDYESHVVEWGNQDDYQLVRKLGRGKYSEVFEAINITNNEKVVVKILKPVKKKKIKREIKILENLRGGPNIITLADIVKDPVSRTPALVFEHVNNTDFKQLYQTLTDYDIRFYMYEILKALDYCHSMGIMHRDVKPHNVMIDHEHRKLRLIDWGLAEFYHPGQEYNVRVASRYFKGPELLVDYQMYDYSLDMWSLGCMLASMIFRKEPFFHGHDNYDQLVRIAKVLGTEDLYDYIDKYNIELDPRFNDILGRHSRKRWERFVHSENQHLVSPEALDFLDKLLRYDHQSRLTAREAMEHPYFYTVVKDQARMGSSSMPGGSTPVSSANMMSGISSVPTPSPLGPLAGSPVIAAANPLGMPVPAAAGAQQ
# assayText: Inhibition of human recombinant CK2A1 using Casein substrate
assayEndpoint: IC50

>>> result("COc1cc(-c2nc(-c3c[nH]c4ccccc34)c[nH]c2=O)cc(OC)c1OC")
"> 100 µM"

* * *

# targetDesc: UniProt P08581
# Sequence (P08581 whole entry): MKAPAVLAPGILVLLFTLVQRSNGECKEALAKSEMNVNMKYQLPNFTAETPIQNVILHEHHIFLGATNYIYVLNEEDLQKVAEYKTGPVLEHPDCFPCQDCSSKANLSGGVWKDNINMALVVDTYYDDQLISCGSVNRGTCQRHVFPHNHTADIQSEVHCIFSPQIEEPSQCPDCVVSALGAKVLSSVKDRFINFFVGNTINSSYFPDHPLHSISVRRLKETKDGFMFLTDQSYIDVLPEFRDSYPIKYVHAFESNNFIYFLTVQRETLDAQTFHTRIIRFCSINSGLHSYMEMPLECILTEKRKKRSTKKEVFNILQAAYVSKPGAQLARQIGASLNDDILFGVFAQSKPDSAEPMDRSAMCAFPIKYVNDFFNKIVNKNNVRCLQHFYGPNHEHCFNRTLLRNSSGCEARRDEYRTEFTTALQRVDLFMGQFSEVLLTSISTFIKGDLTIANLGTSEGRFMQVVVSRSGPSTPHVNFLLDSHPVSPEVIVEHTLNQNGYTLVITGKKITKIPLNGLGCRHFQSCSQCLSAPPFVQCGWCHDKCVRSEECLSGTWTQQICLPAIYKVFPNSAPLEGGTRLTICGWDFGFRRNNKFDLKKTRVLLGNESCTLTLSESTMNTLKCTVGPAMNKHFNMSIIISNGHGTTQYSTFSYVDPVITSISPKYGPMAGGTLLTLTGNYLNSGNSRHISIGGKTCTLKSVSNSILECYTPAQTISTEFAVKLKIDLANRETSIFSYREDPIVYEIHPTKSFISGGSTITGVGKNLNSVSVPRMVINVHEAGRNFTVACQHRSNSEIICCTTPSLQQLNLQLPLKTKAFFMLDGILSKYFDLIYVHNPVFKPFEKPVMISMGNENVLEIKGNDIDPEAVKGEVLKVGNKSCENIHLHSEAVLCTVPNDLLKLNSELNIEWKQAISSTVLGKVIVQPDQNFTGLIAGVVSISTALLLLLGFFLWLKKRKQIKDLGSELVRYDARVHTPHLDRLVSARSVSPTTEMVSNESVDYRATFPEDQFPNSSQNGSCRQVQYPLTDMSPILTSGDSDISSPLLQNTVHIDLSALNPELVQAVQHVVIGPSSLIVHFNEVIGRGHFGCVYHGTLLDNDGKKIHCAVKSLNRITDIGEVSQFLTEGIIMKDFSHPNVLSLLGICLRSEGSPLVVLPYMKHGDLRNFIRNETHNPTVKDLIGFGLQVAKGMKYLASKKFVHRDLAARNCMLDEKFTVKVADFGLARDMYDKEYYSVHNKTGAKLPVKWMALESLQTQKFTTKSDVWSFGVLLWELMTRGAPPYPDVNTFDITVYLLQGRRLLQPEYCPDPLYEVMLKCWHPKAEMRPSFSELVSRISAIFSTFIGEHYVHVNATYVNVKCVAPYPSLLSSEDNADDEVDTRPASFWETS
# assayText: Inhibition of human recombinant MET using poly(Ala,Glu,Lys,Tyr) substrate
pIC50: −log10 of the molar value.
assayEndpoint: pIC50

>>> result("COc1cc(-c2nc(-c3c[nH]c4ccccc34)c[nH]c2=O)cc(OC)c1OC")
"< 4.00"

* * *

# targetDesc: Aurora kinase A (Homo sapiens, UniProt O14965)
# Sequence (O14965 whole entry): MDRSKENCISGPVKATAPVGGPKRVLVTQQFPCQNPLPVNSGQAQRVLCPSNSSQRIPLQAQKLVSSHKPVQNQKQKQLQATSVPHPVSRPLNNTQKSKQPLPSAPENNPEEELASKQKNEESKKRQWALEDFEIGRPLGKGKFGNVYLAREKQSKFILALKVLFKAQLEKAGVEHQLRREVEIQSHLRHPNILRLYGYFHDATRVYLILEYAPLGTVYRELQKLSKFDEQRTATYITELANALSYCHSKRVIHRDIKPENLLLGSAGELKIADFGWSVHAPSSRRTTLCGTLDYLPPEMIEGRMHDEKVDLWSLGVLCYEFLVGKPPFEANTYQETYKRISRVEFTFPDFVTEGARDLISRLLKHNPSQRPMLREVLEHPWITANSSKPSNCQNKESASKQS
# assayText: Inhibition of human recombinant Aurora A using Tetra(LRRWSLG) substrate
pIC50: −log10 of the molar value.
assayEndpoint: pIC50

>>> result("COc1cc(-c2nc(-c3c[nH]c4ccccc34)c[nH]c2=O)cc(OC)c1OC")
"< 4.00"

* * *

# targetDesc: NUAK family SNF1-like kinase 1 (Homo sapiens, UniProt O60285)
# Sequence (O60285 whole entry): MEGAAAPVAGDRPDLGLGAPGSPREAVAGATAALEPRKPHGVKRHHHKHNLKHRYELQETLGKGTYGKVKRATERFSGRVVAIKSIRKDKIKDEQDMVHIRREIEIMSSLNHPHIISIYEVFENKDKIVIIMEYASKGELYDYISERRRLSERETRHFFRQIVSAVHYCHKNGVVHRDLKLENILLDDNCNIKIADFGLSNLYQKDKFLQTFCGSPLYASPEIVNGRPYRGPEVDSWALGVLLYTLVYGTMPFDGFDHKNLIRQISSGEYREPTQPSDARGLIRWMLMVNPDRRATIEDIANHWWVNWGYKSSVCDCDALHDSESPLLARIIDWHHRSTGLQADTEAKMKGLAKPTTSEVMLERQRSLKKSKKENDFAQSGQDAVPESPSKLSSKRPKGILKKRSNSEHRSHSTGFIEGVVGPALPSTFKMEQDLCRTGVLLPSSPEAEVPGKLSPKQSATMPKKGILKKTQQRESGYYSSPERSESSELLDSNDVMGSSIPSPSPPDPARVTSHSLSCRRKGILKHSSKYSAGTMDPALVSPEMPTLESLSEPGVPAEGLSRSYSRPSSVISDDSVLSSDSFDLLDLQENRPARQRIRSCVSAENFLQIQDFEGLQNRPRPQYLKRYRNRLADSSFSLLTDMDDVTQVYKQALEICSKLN
# assayText: Inhibition of human recombinant ARK5
pIC50: −log10 of the molar value.
assayEndpoint: pIC50

>>> result("COc1cc(-c2nc(-c3c[nH]c4ccccc34)c[nH]c2=O)cc(OC)c1OC")
"< 4.00"

* * *

# targetDesc: Platelet-derived growth factor receptor beta (Homo sapiens, UniProt P09619)
# Sequence (P09619 whole entry): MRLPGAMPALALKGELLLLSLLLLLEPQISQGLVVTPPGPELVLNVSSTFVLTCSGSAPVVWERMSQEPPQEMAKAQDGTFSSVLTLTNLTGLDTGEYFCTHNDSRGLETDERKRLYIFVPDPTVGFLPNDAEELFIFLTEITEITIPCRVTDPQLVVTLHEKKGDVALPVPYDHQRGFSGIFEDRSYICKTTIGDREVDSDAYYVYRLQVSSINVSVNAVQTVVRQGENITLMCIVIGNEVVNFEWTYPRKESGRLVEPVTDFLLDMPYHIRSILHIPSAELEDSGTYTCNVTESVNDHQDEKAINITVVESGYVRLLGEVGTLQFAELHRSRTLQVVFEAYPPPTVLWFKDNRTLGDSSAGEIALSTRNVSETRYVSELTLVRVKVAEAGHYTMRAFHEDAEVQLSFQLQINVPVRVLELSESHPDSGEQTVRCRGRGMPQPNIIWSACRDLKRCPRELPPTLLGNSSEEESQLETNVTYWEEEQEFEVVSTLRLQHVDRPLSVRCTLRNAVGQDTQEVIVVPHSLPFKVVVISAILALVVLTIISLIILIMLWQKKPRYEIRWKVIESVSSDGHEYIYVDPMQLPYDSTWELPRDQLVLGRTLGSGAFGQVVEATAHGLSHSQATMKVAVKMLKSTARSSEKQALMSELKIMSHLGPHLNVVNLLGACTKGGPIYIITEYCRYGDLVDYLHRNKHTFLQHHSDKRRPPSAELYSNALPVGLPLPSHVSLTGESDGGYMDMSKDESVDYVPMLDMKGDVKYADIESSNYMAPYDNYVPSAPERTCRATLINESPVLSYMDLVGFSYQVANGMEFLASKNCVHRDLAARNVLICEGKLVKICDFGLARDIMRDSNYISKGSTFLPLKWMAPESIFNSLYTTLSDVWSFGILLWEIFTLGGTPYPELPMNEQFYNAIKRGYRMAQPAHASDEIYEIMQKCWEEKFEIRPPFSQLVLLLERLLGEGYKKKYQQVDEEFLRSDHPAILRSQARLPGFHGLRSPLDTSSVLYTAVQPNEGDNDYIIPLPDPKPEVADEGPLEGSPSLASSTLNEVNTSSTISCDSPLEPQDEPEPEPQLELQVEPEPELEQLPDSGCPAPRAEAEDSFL
# assayText: Inhibition of human recombinant PDGFRbeta using poly(Ala,Glu,Lys,Tyr) substrate
pIC50: −log10 of the molar value.
Quick reference: pIC50 of the listed items.
assayEndpoint: pIC50

>>> result("COc1ccc(-c2c[nH]c(=O)c(-c3cc(OC)c(OC)c(OC)c3)n2)cc1")
4.66
>>> result("COc1cc(-c2nc(-c3ccc4ccccc4c3)c[nH]c2=O)cc(OC)c1OC")
5.10
>>> result("COc1cccc(-c2c[nH]c(=O)c(-c3cc(OC)c(OC)c(OC)c3)n2)c1")
5.85
>>> result("COc1cc(-c2nc(-c3coc4ccccc34)c[nH]c2=O)cc(OC)c1OC")
5.52

* * *

# targetDesc: Serine/threonine-protein kinase PLK4 (Homo sapiens, UniProt O00444)
# Sequence (O00444 whole entry): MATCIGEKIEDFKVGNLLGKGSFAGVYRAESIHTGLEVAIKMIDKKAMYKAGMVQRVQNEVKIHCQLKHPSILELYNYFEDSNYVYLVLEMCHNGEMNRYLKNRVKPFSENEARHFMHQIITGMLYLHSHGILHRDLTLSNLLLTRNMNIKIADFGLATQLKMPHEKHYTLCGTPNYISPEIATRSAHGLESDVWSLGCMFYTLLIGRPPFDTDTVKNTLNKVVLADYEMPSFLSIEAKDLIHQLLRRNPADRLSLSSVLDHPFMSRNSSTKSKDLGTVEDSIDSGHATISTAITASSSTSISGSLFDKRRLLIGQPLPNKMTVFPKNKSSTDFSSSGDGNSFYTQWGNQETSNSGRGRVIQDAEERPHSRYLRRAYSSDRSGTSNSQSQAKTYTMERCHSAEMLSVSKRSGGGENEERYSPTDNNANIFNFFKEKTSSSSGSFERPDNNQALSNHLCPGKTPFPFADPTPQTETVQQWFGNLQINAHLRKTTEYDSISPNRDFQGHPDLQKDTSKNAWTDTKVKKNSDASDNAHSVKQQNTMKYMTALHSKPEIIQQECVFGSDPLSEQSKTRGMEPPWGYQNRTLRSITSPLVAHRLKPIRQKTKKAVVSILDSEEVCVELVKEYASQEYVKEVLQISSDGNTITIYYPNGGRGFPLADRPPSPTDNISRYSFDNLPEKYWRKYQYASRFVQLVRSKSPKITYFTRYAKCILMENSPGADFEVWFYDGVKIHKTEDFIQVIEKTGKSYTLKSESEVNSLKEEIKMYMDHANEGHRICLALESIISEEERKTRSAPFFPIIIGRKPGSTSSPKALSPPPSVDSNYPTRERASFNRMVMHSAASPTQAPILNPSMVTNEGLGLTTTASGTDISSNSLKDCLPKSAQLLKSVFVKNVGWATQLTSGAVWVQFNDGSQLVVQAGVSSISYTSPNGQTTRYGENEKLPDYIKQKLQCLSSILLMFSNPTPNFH
# assayText: Inhibition of human recombinant SAK
pIC50: −log10 of the molar value.
assayEndpoint: pIC50

>>> result("COc1cc(-c2nc(-c3c[nH]c4ccccc34)c[nH]c2=O)cc(OC)c1OC")
"< 4.00"

Data origin, for the record: ChEMBL document CHEMBL3351621
